Recorded values, source patent US20210095028A1.

Target: T1, human TIGIT over-expressed on cells (human, UniProt Q495A1 22-244)
T1 sequence: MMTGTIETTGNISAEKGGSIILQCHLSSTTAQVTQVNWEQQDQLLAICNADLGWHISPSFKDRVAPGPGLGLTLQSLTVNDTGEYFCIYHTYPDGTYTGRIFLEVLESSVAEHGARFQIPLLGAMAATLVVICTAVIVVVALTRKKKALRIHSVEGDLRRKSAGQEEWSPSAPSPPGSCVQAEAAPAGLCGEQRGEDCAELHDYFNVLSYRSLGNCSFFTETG
Assay: cell-based or functional assay
// reported IL-2 secretion in T cell activation, Top (best-fit) for each item listed
readout: IL-2 secretion in T cell activation, Top (best-fit)

[
  {
    "binder": "64G1E9B4VH1.M1_VL1.M1 (antibody, human IgG1, V domains shown, Humanized antibody, variable domains fused with the constant region of human IgG1; also called 64G1VH1.M1_VL1.M1) VH: EVQLVQSGAEVKKPGSSVKVSCKASGYTFTEHVIHWVRQAPGQGLEWMGGFNPNHGGTIYNQIFRGRVTITADKSTSTAYMELSSLRSEDTAVYYCARAAKLLFAMDYWGQGTTVTVSS VL: DIQMTQSPSSLSASVGDRVTITCRASQHVSNAVVWYQQKPGKAPKLLIYSPSYRFTGVPSRFSGSGSGTDFTLTISSLQPEDFATYYCQQHYSTPWTFGGGTKVEIK",
    "result": 467
  },
  {
    "binder": "64G1E9B4 chimeric (antibody, V domains shown, also called 64G1 Chimeric) VH: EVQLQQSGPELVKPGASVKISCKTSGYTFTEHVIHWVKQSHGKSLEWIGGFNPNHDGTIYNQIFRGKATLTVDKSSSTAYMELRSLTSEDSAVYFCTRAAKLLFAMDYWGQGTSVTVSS VL: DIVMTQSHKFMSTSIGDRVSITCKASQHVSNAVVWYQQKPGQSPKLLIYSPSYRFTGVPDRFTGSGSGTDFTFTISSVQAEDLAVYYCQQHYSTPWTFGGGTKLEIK",
    "result": 462
  },
  {
    "binder": "100C4E7D11VH1_VL1 (antibody, V domains shown, Humanized antibody, variable domains fused with the constant region of human IgG1; also called 100C4VH1_VL1) VH: EVQLVESGGGLVKPGGSLRLSCAASGFTFSFYTMSWVRQAPGKGLEWVSTISSGGGSTYYSDSVKGRFTISRDNAKNSLYLQMNSLRAEDTAVYYCARSLPVDYWGQGTTVTVSS VL: EIVLTQSPGTLSLSPGERATLSCTASSSVSSTYLHWYQQKPGQAPRLLIYSTSNLASGIPDRFSGSGSGTDFTLTISRLEPEDFAVYYCHLYHHSPYTFGGGTKVEIK",
    "result": 435
  }
]
